# assay target: human plasmin (human, UniProt P00747 97-810, limits assumed)
# Sequence (P00747 97-810 limits assumed): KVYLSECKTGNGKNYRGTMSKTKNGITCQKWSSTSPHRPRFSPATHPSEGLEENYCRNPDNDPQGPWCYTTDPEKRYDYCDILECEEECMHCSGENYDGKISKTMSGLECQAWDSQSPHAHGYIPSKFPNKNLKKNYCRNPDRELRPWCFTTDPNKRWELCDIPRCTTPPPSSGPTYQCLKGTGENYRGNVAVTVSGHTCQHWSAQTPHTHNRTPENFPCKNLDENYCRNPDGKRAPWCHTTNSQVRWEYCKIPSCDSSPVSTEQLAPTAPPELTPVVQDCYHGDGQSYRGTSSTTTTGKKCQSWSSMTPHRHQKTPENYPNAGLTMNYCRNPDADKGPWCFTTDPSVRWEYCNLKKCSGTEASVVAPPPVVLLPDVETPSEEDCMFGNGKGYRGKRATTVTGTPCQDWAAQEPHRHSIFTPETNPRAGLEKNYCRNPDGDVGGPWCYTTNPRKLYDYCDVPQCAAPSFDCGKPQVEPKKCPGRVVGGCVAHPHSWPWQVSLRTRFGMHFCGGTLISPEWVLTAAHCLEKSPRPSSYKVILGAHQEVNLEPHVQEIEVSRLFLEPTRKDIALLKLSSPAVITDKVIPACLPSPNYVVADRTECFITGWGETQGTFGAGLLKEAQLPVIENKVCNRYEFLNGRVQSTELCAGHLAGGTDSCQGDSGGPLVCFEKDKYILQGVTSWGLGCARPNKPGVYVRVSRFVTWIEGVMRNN
# test: protease inhibition, apparent Ki (Ki,app)
readout name: pKi
Schema: pKi number; meaning minus log10 of the concentration expressed in molar units.

Query: Quick check: pKi of PEP-1 KI polypeptide (designed binder, also called DX88) EAMHSFCAFKADDGPCRAAHPRWFFNIFTRQCEEFIYGGCEGNQNRFESLEECKKMCTRD ?
Reply: 6.85
